System name: UniProt P97612
Sequence (P97612 whole entry): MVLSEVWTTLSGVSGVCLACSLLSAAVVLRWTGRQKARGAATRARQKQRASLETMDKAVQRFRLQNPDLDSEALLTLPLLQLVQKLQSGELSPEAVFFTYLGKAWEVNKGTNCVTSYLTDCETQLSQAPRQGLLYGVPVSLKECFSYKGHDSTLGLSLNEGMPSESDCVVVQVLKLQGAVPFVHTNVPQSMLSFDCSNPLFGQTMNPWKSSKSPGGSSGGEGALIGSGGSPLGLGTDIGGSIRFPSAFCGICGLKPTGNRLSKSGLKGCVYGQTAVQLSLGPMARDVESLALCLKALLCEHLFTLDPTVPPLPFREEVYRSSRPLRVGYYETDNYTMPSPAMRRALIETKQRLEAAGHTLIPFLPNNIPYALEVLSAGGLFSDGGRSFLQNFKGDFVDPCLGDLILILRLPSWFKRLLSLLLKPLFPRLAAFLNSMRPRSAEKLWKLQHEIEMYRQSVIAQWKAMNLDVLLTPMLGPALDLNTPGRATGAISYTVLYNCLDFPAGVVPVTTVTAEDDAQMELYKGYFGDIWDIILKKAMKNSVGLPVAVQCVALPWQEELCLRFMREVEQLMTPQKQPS
Experimental protocol: Time-dependent inhibition of recombinant rat FAAH expressed in Escherichia coli assessed as breakdown of [14C]-oleamide preincubated for 6 hrs by Dixon plot analysis
Listing of entries alongside the reported log10(Ki).
Note: values are log10 of Ki expressed in nM.

Worked set:
O=C(CCCCCCc1ccccc1)c1ncc(-c2ccc(CBr)cn2)o1: -0.70
O=C(CCCCCCc1ccccc1)c1ncc(-c2ccc(CCl)cn2)o1: 1.39

**Q:** Provide one value: measured log10(Ki) of N#C/C=C/c1ccc(-c2cnc(C(=O)CCCCCCc3ccccc3)o2)nc1
**A:** 0.43

**Q:** Provide one value: measured log10(Ki) of N#CCCCCCc1cnc(C(=O)CCCCCCc2ccccc2)o1
**A:** 0.60

**Q:** Provide one value: measured log10(Ki) of COC(=N)Cc1ccc(-c2cnc(C(=O)CCCCCCc3ccccc3)o2)nc1
**A:** -0.22

**Q:** Provide one value: measured log10(Ki) of O=C(CCCCCCc1ccccc1)c1ncc(CCCCCBr)o1
**A:** 0.78

**Q:** Provide one value: measured log10(Ki) of N#CCc1ccc(-c2cnc(C(=O)CCCCCCc3ccccc3)o2)nc1
**A:** -0.30
